# Test summary: Cmax in cynomolgus monkey plasma at 3 mg/kg, administered through oral gavage measured after 24 hrs
# Type: ADME, organism-based, Macaca fascicularis
# Set-up: dose 3 mg/kg, route oral
Endpoint label: Cmax

Incoming: // query Cmax value for entry "CCCC[C@@H](CCO)Nc1nc(N)ncc1OC"
Outgoing: 7 ng/mL

* * *

# Test summary: Intrinsic clearance in dog liver microsomes assessed per mg protein at 1 uM measured after 60 mins
# Assay type: ADME, Canis lupus familiaris, Microsome
# Condition summary: read-out: CLH
Endpoint label: microsomal CLint at 1 µM (µL/min/mg)
API: value field is a number in µL/min/mg; no unit string.

Incoming: // query microsomal CLint at 1 µM value for entry "CCCC[C@@H](CCO)Nc1nc(N)ncc1OC"
Outgoing: 7
